- TEST TARGET: HSP-90 (Homo sapiens)
- Construct: fused on or other part: 6-His tag at the C-terminus
- ASSAY PROCEDURE: HSP-90 SPA (scintillation proximity assay) competition binding assay, displacement of tritiated propyl-Geldanamycin
- SETUP CONDITIONS: read-out: % inhibition @ 10 μM
PROPERTY LABEL: inhibition at 10 µM

COMPOUND | PROPERTY LABEL | MEAS VALUE
O=C(c1ccc(O)cc1O)N1CCOCC(Cc2ccc(Cl)c(Cl)c2)C1 (centres unmarked) | inhibition at 10 µM | 80%
O=C(c1ccc(O)cc1O)N1CC=CCC1 | inhibition at 10 µM | 82.6%
Cc1ccc2c(c1)C=CC1(CCN(C(=O)c3ccc(O)cc3O)CC1)O2 | inhibition at 10 µM | 85.3%
O=C(c1ccc(O)cc1O)N1CCC(c2cccc(Cl)c2)C1 (centres unmarked) | inhibition at 10 µM | 67.6%
Cc1nc2c(s1)CN(C(=O)c1ccc(O)cc1O)CC2 | inhibition at 10 µM | 74.3%

----------
compounds and their reported inhibition at 10 µM
- TEST TARGET: HSP-90 (Homo sapiens, UniProt P07900)
- Construct: fused on or other part: 6-His tag at the C-terminus
- ASSAY PROCEDURE: HSP-90 SPA (scintillation proximity assay) competition binding assay, displacement of tritiated propyl-Geldanamycin
- SETUP CONDITIONS: read-out: % inhibition @ 10 μM
- Description: Compounds of the present invention were evaluated for potency against HSP-90 using a SPA (scintillation proximity assay) competition binding assay. […] Tritiated pGA, which contains a tritiated propyl-amine group added at the #17 position, binds HSP-90 and brings the isotope into proximity with the beads. […] This reduction in signal is used to quantify the extent to which the inhibitor/compound is competitive with pGA. […]
PROPERTY LABEL: inhibition at 10 µM (%)

COMPOUND | PROPERTY LABEL | MEAS VALUE
O=C(c1ccc(O)cc1O)N1CCOCC2(CC(c3cc(F)cc(F)c3)=NO2)C1 (stereo not drawn) [Example 128] | inhibition at 10 µM | 73.1
CN(CCc1ccccc1)C(=O)c1ccc(O)cc1O [Example 108] | inhibition at 10 µM | 83.1
Cc1cccc(N2CCN(C(=O)c3ccc(O)cc3O)CC2)n1 [Example 101] | inhibition at 10 µM | 70.2
O=C(c1ccc(O)cc1O)N1CCOCC(O)(COCC2CC2)C1 (stereo not drawn) [Example 38] | inhibition at 10 µM | 68.4
O=C(c1ccc(O)cc1O)N1CCCN(c2nc3cc(Cl)ccc3o2)CC1 [Example 88] | inhibition at 10 µM | 42.9
O=C1CC2(CCN(C(=O)c3ccc(O)cc3O)CC2)Oc2ccccc21 [Example 85] | inhibition at 10 µM | 79.6
CN(C(=O)c1ccc(O)cc1O)[C@@H]1CCCC[C@H]1O [Example 40] | inhibition at 10 µM | 49.1
Cc1noc(C)c1COCC1COCCN(C(=O)c2ccc(O)cc2O)C1 (stereo not drawn) [Example 98] | inhibition at 10 µM | 65.9
O=C(c1ccc(O)cc1O)N1CCC2(C=Cc3cc(Cl)ccc3O2)CC1 [Example 79] | inhibition at 10 µM | 85.1

----------
- TEST TARGET: HSP-90 (Homo sapiens, UniProt P07900)
- Construct: fused on or other part: 6-His tag at the C-terminus
- ASSAY PROCEDURE: HSP-90 SPA (scintillation proximity assay) competition binding assay, displacement of tritiated propyl-Geldanamycin
- SETUP CONDITIONS: read-out: % inhibition @ 1 μM
compounds and their reported inhibition at 1 µM

COMPOUND | UNIT NAME | inhibition at 1 µM
O=C(c1ccc(O)cc1O)N1CCCC1c1ccc(Cl)cc1 (centres unmarked) [Example 84] | % | 76.2
O=C(c1ccc(O)cc1O)N1CCC(COc2cccc(Cl)c2)C1 (centres unmarked) [Example 87] | % | 36.7
COc1cc(C2=NOC3(COCCN(C(=O)c4ccc(O)cc4O)C3)C2)ccc1F (centres unmarked) [Example 129] | % | 60.5
O=C(c1ccc(O)cc1O)N1CCN(c2cnccn2)CC1 [Example 111] | % | 5.9
O=C(c1ccc(O)cc1O)N1CCCCC1 [Example 63] | % | 32.2
